Origin of values: ChEMBL document CHEMBL3885881

Measured MEAN CORPUSCULAR HEMOGLOBIN of individual entries
species: Rattus norvegicus; test: DrugMatrix - Regimen: Daily Repeat; type: toxicity, organism-based, Sprague-Dawley; set-up: regimen Daily Repeat, gender Male, age 6-8 weeks; conditions: in vivo, po, 0 mg/kg, 120 h, tissue Blood, route oral GAVAGE, dose level Control, time 5 day, vehicle .5 % CMC

{"compound": "CN1C(=O)COc2c(C(=O)NC3CN4CCC3CC4)cc(Cl)cc21 (stereo unspecified) [AZASETRON]", "MEAN CORPUSCULAR HEMOGLOBIN": "24.48 pg"}
{"compound": "N=C(N)NC(=O)c1nc(Cl)c(N)nc1N [AMILORIDE]", "MEAN CORPUSCULAR HEMOGLOBIN": "24.37 pg"}
{"compound": "CN1CCC(=C2c3ccccc3C=Cc3ccccc32)CC1 [CYPROHEPTADINE]", "MEAN CORPUSCULAR HEMOGLOBIN": "24.65 pg"}
{"compound": "C#C[C@]1(O)CC[C@H]2[C@@H]3CCc4cc(OC)ccc4[C@H]3CC[C@@]21C [MESTRANOL]", "MEAN CORPUSCULAR HEMOGLOBIN": "25.02 pg"}
{"compound": "C[C@]1(Cn2ccnn2)[C@H](C(=O)O)N2C(=O)C[C@H]2S1(=O)=O [TAZOBACTAM]", "MEAN CORPUSCULAR HEMOGLOBIN": "23.22 pg"}
{"compound": "CC(C)[C@H]1CC[C@H](C(=O)N[C@H](Cc2ccccc2)C(=O)O)CC1 [NATEGLINIDE]", "MEAN CORPUSCULAR HEMOGLOBIN": "24.78 pg"}
{"compound": "O=[N+]([O-])c1ccccc1 [NITROBENZENE]", "MEAN CORPUSCULAR HEMOGLOBIN": "20.6 pg"}
{"compound": "CO[C@H]1/C=C/O[C@@]2(C)Oc3c(C)c(O)c4c(c3C2=O)C2=NC3(CCN(CC(C)C)CC3)NC2=C(NC(=O)/C(C)=C\\C=C\\[C@H](C)[C@H](O)[C@@H](C)[C@@H](O)[C@@H](C)[C@H](OC(C)=O)[C@@H]1C)C4=O [RIFABUTIN]", "MEAN CORPUSCULAR HEMOGLOBIN": "25.02 pg"}
{"compound": "Cc1onc(-c2ccccc2)c1-c1ccc(S(N)(=O)=O)cc1 [VALDECOXIB]", "MEAN CORPUSCULAR HEMOGLOBIN": "19.82 pg"}
{"compound": "O=C1CCC(N2C(=O)c3ccccc3C2=O)C(=O)N1 (stereo unspecified) [THALIDOMIDE]", "MEAN CORPUSCULAR HEMOGLOBIN": "20.1 pg"}
{"compound": "CC(=O)CC(c1ccccc1)c1c(O)c2ccccc2oc1=O (stereo unspecified) [WARFARIN]", "MEAN CORPUSCULAR HEMOGLOBIN": "24.12 pg"}

* * *

species on record: Rattus norvegicus; experiment: DrugMatrix - Regimen: Daily Repeat; type: toxicity, organism-based, Sprague-Dawley; parameters: regimen Daily Repeat, gender Male, age 6-8 weeks; details: in vivo, po, 1500 mg/kg, 120 h, tissue Blood, route oral GAVAGE, dose level High, time 5 day, vehicle .5 % CMC
value_kind: ERYTHROCYTE COUNT (x10E6/uL)

{"compound": "CNC(=C[N+](=O)[O-])NCCSCc1ccc(CN(C)C)o1 [RANITIDINE]", "value_kind": "ERYTHROCYTE COUNT", "measured_number": 6.18}
{"compound": "O=C(N[C@H](CO)[C@H](O)c1ccc([N+](=O)[O-])cc1)C(Cl)Cl [CHLORAMPHENICOL]", "value_kind": "ERYTHROCYTE COUNT", "measured_number": 5.7}
{"compound": "Cc1cc(=O)n(-c2ccccc2)n1C [ANTIPYRINE]", "value_kind": "ERYTHROCYTE COUNT", "measured_number": 5.35}
{"compound": "NC(=O)c1cnccn1 [PYRAZINAMIDE]", "value_kind": "ERYTHROCYTE COUNT", "measured_number": 6.59}
{"compound": "C[C@]1(Cn2ccnn2)[C@H](C(=O)O)N2C(=O)C[C@H]2S1(=O)=O [TAZOBACTAM]", "value_kind": "ERYTHROCYTE COUNT", "measured_number": 5.74}
{"compound": "Cc1ccc(S(=O)(=O)NC(=O)NN2CC3CCCC3C2)cc1 (configuration not stated) [GLICLAZIDE]", "value_kind": "ERYTHROCYTE COUNT", "measured_number": 6.29}
{"compound": "CO[C@H]1/C=C/O[C@@]2(C)Oc3c(C)c(O)c4c(c3C2=O)C2=NC3(CCN(CC(C)C)CC3)NC2=C(NC(=O)/C(C)=C\\C=C\\[C@H](C)[C@H](O)[C@@H](C)[C@@H](O)[C@@H](C)[C@H](OC(C)=O)[C@@H]1C)C4=O [RIFABUTIN]", "value_kind": "ERYTHROCYTE COUNT", "measured_number": 6.24}

* * *

species: Rattus norvegicus; assay: DrugMatrix - Regimen: Daily Repeat; assay type: toxicity, organism-based, Sprague-Dawley; parameters: regimen Daily Repeat, gender Male, age 6-8 weeks; conditions: in vivo, po, 0 mg/kg, 72 h, tissue Plasma, route oral GAVAGE, dose level Control, time 3 day, […]
value_kind: CHLORIDE (MEQ/L)

{"molecule": "CCOC(=O)C(C)(C)Oc1ccc(Cl)cc1 [CLOFIBRATE]", "value_kind": "CHLORIDE", "measured_number": 102.67}
{"molecule": "COCCOC(=O)C1=C(C)NC(C)=C(C(=O)OC(C)C)C1c1cccc([N+](=O)[O-])c1 (stereo unspecified)", "value_kind": "CHLORIDE", "measured_number": 98.33}
{"molecule": "CC(C)(Oc1ccc(C2CCCc3ccccc32)cc1)C(=O)O (stereo unspecified)", "value_kind": "CHLORIDE", "measured_number": 100.17}
{"molecule": "CC(=O)Nc1ccc(O)cc1", "value_kind": "CHLORIDE", "measured_number": 99.17}
{"molecule": "O=C(O)Cc1ccccc1Nc1c(Cl)cccc1Cl", "value_kind": "CHLORIDE", "measured_number": 101}
{"molecule": "CC(=O)Nc1cccc(O)c1", "value_kind": "CHLORIDE", "measured_number": 100}

* * *

organism: Rattus norvegicus; experiment: DrugMatrix - Regimen: Daily Repeat; assay type: toxicity, organism-based, Sprague-Dawley; design: regimen Daily Repeat, gender Male, age 6-8 weeks; settings: in vivo, po, 0 mg/kg, […], tissue Blood, route oral GAVAGE, dose level Control, time 14 day
value_kind: ABSOLUTE MONOCYTE (cells/µL)

{"molecular_string": "Clc1ccc(Cl)cc1", "measured_number": 250}

* * *

species on record: Rattus norvegicus; assay: DrugMatrix - Regimen: Daily Repeat; assay type: toxicity, organism-based, Sprague-Dawley; set-up: regimen Daily Repeat, gender Male, age 6-8 weeks; conditions: in vivo, iv, 0 mg/kg, 120 h, tissue Plasma, dose level Control, time 5 day, vehicle 100 % SALINE
Measured CREATINE PHOSPHOKINASE of individual entries

{"compound": "CCc1c2c(nc3ccc(OC(=O)N4CCC(N5CCCCC5)CC4)cc13)-c1cc3c(c(=O)n1C2)COC(=O)[C@]3(O)CC", "CREATINE PHOSPHOKINASE, u/L": 434}
{"compound": "COc1cccc2c1C(=O)c1c(O)c3c(c(O)c1C2=O)C[C@@](O)(C(=O)CO)C[C@@H]3O[C@H]1C[C@H](N)[C@H](O)[C@H](C)O1", "CREATINE PHOSPHOKINASE, u/L": 313.67}
{"compound": "CC[C@]1(O)C[C@@H]2CN(CCc3c([nH]c4ccccc34)[C@@](C(=O)OC)(c3cc4c(cc3OC)N(C)[C@H]3[C@@](O)(C(=O)OC)[C@H](OC(C)=O)[C@]5(CC)C=CCN6CC[C@]43[C@@H]65)C2)C1", "CREATINE PHOSPHOKINASE, u/L": 242.67}
{"compound": "CC(=O)N[C@@H]1[C@H](Oc2c3cc4cc2Oc2ccc(cc2Cl)[C@@H](O[C@@H]2O[C@@H](CO)[C@@H](O)[C@H](O)[C@@H]2NC(C)=O)[C@@H]2NC(=O)[C@H](NC(=O)[C@@H]4NC(=O)[C@H]4NC(=O)[C@@H](Cc5ccc(c(Cl)c5)O3)NC(=O)[C@H](N)c3ccc(O)c(c3)Oc3cc(O)cc4c3)c3ccc(O)c(c3)-c3c(O[C@H]4O[C@H](CO)[C@@H](O)[C@@H](O)[C@@H]4O)cc(O)cc3[C@@H](C(=O)O)NC2=O)O[C@@H](CO)[C@@H](O)[C@@H]1O", "CREATINE PHOSPHOKINASE, u/L": 346.17}
{"compound": "COc1cccc2c1C(=O)c1c(O)c3c(c(O)c1C2=O)C[C@@](O)(C(=O)CO)C[C@@H]3O[C@H]1C[C@H](N)[C@@H](O)[C@H](C)O1 [EPIRUBICIN]", "CREATINE PHOSPHOKINASE, u/L": 434}
{"compound": "CCC1=C[C@@H]2CN(C1)Cc1c([nH]c3ccccc13)[C@@](C(=O)OC)(c1cc3c(cc1OC)N(C)[C@H]1[C@@](O)(C(=O)OC)[C@H](OC(C)=O)[C@]4(CC)C=CCN5CC[C@]31[C@@H]54)C2", "CREATINE PHOSPHOKINASE, u/L": 331.33}
